molecular target: VC I-II RNA (tandem type I and type II glycine aptamers, VC1422 gene); test: In-line probing of VC I-II RNA; details: VC I-II, best fit of four regions; read-out: constant K of Hill equation
quantity_kind: pKd
Kindly note that pKd refers to -log10 of the concentration in mol/L and answer with the value alone.

Tell me its pKd given NCC(=O)O as the entry.
4.40

* * *

target: VC II RNA (type II glycine aptamer alone); experiment: In-line probing of VC II RNA; settings: VC II, best fit of four regions; read-out: constant K of Hill equation
quantity_kind: pKd
In simple prose, pKd is minus the logarithm base ten of a concentration in moles per litre.

Determine reported pKd for NCC(=O)O ; test system: VC II RNA (type II glycine aptamer alone).
4.62
